Recorded Hypolipidemic activity for the following compounds
Test system: Rattus norvegicus
ASSAY INFO: Hypolipidemic activity in rats by evaluating the plasma triacylglycerol level at a dose of 10 mg/kg for seven days
Format: functional
Numeric answer only, unit % assumed.

The examples below pair each entry with its known result.
• CC(C)(CCCCCCCCCCCCC(C)(C)CC(=O)O)CC(=O)O = 130
• CC(C)(CCCCCCCCC(C)(C)CC(=O)O)CC(=O)O = 126
• CC(C)(CCCCCCCCCCC(C)(C)CC(=O)O)CC(=O)O = 111

// Hypolipidemic activity (Rattus norvegicus) for "CC(C)(CCCCCCCCCC(C)(C)CC(=O)O)CC(=O)O" = 112

// Hypolipidemic activity (Rattus norvegicus) for "CC(C)(CCCCCCCCCCCC(C)(C)CC(=O)O)CC(=O)O" = 113
